MEASUREMENT TARGET: SARS-COV-2 RBD extracellular domain expressed with a C-terminal mouse IgG2a Fc (SARS-CoV-2)
EXPERIMENTAL PROTOCOL: Biacore SPR, mAb captured on anti-hFc, 25 C

- BINDER: "mAb14235 (antibody, V domains shown) VH: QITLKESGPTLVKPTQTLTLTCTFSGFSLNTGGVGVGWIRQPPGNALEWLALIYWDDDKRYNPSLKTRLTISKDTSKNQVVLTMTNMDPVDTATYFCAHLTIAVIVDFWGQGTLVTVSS VL: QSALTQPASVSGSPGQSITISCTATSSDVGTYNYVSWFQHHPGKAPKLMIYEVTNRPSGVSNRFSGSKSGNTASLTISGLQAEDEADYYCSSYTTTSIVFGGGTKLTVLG"
  UNIT ANNOTATION: "M⁻¹ s⁻¹"
  kon: "1.1e+06"
- BINDER: "mAb14280 (antibody, V domains shown) VH: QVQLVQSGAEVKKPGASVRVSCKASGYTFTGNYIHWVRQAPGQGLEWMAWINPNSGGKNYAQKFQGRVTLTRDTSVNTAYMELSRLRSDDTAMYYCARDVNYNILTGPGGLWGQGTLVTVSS VL: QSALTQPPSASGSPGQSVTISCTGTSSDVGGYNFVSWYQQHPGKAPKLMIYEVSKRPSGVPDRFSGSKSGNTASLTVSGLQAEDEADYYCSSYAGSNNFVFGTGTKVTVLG"
  UNIT ANNOTATION: "M⁻¹ s⁻¹"
  kon: "3.02e+06"
- BINDER: "mAb14256 (antibody, V domains shown) VH: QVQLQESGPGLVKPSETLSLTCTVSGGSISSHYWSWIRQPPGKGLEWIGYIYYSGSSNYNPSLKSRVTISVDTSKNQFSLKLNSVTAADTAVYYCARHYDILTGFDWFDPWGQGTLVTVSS VL: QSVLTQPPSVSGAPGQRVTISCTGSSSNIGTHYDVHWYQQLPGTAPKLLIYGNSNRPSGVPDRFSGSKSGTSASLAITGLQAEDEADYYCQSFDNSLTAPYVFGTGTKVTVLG"
  UNIT ANNOTATION: "M⁻¹ s⁻¹"
  kon: "2.84e+06"
